target: human Bim-BH3 (a.a. 141-166) displayed on yeast (human, UniProt O43521 141-166); test: yeast surface display titration (apparent KD)
Sequence (O43521 141-166 limits assumed): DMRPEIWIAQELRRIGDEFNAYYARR
result_type: Kd (nM)
Reply numerically in nM, unit not repeated.

Please review the entries below; each comes with its answer.
binder: human Mcl-1 a.a. 172-327 with C-terminal avi-6his tag (other) GSDELYRQSLEIISRYLREQATGAKDTKPMGRSGATSRKALETLRRVGDGVQRNHETAFQGMLRKLDIKNEDDVKSLSRVMIHVFSDGVTNWGRIVTLISFGAFVAKHLKTINQESCIEPLAESITDVLVRTKRDWLVKQRGWDGFVEFFHVEDLEGGGLNDIFEAQKIEWHEGSHHHHHH
result_type: Kd
endpoint_value: 0.6
--
binder: Epstein-Barr virus BHRF1 a.a. 1-161 with C-terminal avi-6his tag (other, also called EBV BHRF1; BHRF1-biotin) AYSTREILLALCIRDSRVHGNGTLHPVLELAARETPLRLSPEDTVVLRYHVLLEEIIERNSETFTETWNRFITHTEHVDLDFNSVFLEIFHRGDPSLGRALAWMAWCMHACRTLCCNQSTPYYVVDLSVRGMLEASEGLDGWIHQQGGWSTLIEDNIPGSGLNDIFEAQKIEWHEGSHHHHHH
result_type: Kd
endpoint_value: 12

Recall and state the measured Kd for human Bfl-1 a.a. 1-153 (C4S) with C-terminal avi-6his tag (other, also called A1/Bfl-1) TDSEFGYIYRLAQDYLQCVLQIPQPGSGPSKTSRVLQNVAFSVQKEVEKNLKSCLDNVNVVSVDTARTLFNQVMEKEFEDGIINWGRIVTIFAFEGILIKKLLRQQIAPDVDTYKEISYFVAEFIMNNTGEWIRQNGGWENGFVKKFEPKSGGLNDIFEAQKIEWHEGSHHHHHH .
2.1

Recall and state the measured Kd for human Bcl-w a.a. 1-182 with C-terminal avi-6his tag (other, range 1-182; also called BCL2L2) MATPASAPDTRALVADFVGYKLRQKGYVCGAGPGEGPAADPLHQAMRAAGDEFETRFRRTFSDLAAQLHVTPGSAQQRFTQVSDELFQGGPNWGRLVAFFVFGAALCAESVNKEMEPLVGQVQEWMVAYLETQLADWIHSSGGWAEFTALYGDGALEEARRLREGNWASVRTVLTGAVALGAGLNDIFEAQKIEWHEGSHHHHHH .
2.1
